# Tested on: Dd2
# TEST PROTOCOL: Cross-resistance EC50 assay, Dd2 parent
# Assay type: cell-based, Plasmodium falciparum
# RECORDED CONDITIONS: Plasmodium falciparum, DD2, 72 h, read-out: Dd2 (PARENT) Average EC50
# Text: Multidrug resistance alleles, including mutations in P. falciparum chloroquine resistance transporter (pfcrt) and P. falciparum multi-drug resistance transporter 1 (pfmdr1) are very common in field isolates. Therefore, we sought to assess the degree to which pre-existing resistance alleles would contribute to a loss of potency for this diverse collection of small molecule compounds. […]
pEC50: −log10 of the molar value.
Rule: yes (1) for pEC50 not less than 6, no (0) for anything less.

[[record]]
molecule = "O=C(Nc1ccccc1O)c1ccc(Oc2cccc(C(=O)Nc3ccccc3O)c2)cc1 [MMV665888]"
label_class = "yes (1)"

[[record]]
molecule = "O=C(Nc1ccsc1C(=O)NC1CCCCC1)c1ccc(F)cc1 [MMV665939]"
label_class = "no (0)"

[[record]]
molecule = "c1cncc(-c2cc(N3CCC(CN4CCOCC4)CC3)nc(-c3ccncc3)n2)c1 [MMV668399]"
label_class = "yes (1)"

[[record]]
molecule = "CN(C)CCCN(C)C(=O)C1Cc2cc(-c3ccccc3)ccc2N1S(=O)(=O)c1ccccc1 (stereo not drawn) [MMV028895]"
label_class = "yes (1)"

[[record]]
molecule = "CC(NCc1ccccc1)c1cc(Cl)ccc1O (stereo not drawn) [MMV665789]"
label_class = "yes (1)"


The measured values listed here are drawn from paper PMC4912613.
